System: Fusobacterium nucleatum
Assay: Inhibition of Fusobacterium nucleatum ATCC 25586 recombinant MGL R373A mutant expressed in Escherichia coli BL21 (DE3) assessed as decrease in signal intensity by measuring recovery ratio by 19F NMR based competition assay relative to wild type
Parameters: scale not given: the % may be the effect or the level left
quantity.measured: Activity

Some solved entries appear below for comparison.
INSERT INTO results (compound, obs_value) VALUES
  ('O=C(O)c1cc(C(F)(F)F)nn1-c1ccccc1', '50%'),
  ('Cc1cccc2c(C(C(=O)O)C(F)(F)F)c[nH]c12 (stereo not given)', '50%');

Now look at this entry.
Fill blank: measured Activity of the compound O=C(O)c1ccc(OC(F)F)nc1 is ____.
80%

----------
Tested on: Fusobacterium nucleatum
Assay: Inhibition of Fusobacterium nucleatum ATCC 25586 recombinant MGL K238A mutant expressed in Escherichia coli BL21 (DE3) assessed as decrease in signal intensity by measuring recovery ratio by 19F NMR based competition assay relative to wild type
Parameters: concentration or dose not given beside the values
Activity calls are given as the source filed them. No cut-off for these calls is given here.
quantity.measured: Activity

INSERT INTO measurements (molecule, system_under_test, obs_value) VALUES
  ('CC(C)(CC(=O)O)c1ccc(C(F)(F)F)cc1', 'Fusobacterium nucleatum', '50%'),
  ('O=C(O)c1ccc(OCC(F)(F)F)cn1', 'Fusobacterium nucleatum', '50%'),
  ('Cc1ccc2[nH]cc(C(C(=O)O)C(F)(F)F)c2c1 (stereo not given)', 'Fusobacterium nucleatum', 'Active'),
  ('CC(C)(C)OC(=O)N1CCC(CN)(Cc2ccccc2C(F)(F)F)CC1', 'Fusobacterium nucleatum', 'Active');

----------
System: Fusobacterium nucleatum
Experiment: Inhibition of Fusobacterium nucleatum ATCC 25586 recombinant MGL R58K mutant expressed in Escherichia coli BL21 (DE3) assessed as decrease in signal intensity by measuring recovery ratio by 19F NMR based competition assay relative to wild type
Set-up: scale not given: the % may be the effect or the level left
quantity.measured: Activity

Reference set, count: 4
INSERT INTO measurements (compound, system_under_test, obs_value) VALUES
  ('O=C(O)c1cn(-c2ccc(F)cc2)cn1', 'Fusobacterium nucleatum', '80%'),
  ('CC(C)(C)OC(=O)N1CCC(C(=O)O)(c2ccc(C(F)(F)F)cc2)CC1', 'Fusobacterium nucleatum', '50%'),
  ('CC(C)(Cc1ccc(C(F)(F)F)cc1)C(=O)O', 'Fusobacterium nucleatum', '50%'),
  ('CC(C)(C)OC(=O)N1CCC(CN)(Cc2ccccc2C(F)(F)F)CC1', 'Fusobacterium nucleatum', '80%');

Lookup: Activity / Fusobacterium nucleatum / CC(C)(C)OC(=O)N1CCC(CN)(Cc2ccccc2F)CC1
50%

Another compound to check: CC(C)(Cc1cccc(C(F)(F)F)c1)C(=O)O
80%

----------
# Activity annotations
System: Fusobacterium nucleatum
Test: Inhibition of Fusobacterium nucleatum ATCC 25586 recombinant MGL R58K mutant expressed in Escherichia coli BL21 (DE3) assessed as decrease in signal intensity by measuring recovery ratio by 19F NMR based competition assay relative to wild type
Set-up: scale not given: the % may be the effect or the level left

INSERT INTO results (compound, system_under_test, obs_value) VALUES
  ('O=C(O)c1cncc(OCC(F)(F)F)c1', 'Fusobacterium nucleatum', '80%');

If you can, please state the reported Activity value of O=C(O)c1cnn(-c2ccc(F)cc2)c1 .
50%

Could you do the same for CC(C)(CC(=O)O)c1ccc(F)cc1 , please?
80%

What about CC(C)(C)OC(=O)N[C@H]1CC[C@H](N2Cc3ccc(F)cc3C2=O)CC1 ?
50%

Then what about the compound CC(C)(C)OC(=O)N1CCC(CN)(c2ccccc2C(F)(F)F)CC1 ?
80%

// query: Cc1cccc2c(C(C(=O)O)C(F)(F)F)c[nH]c12 (stereo not drawn)
50%

Consider next the compound CC(C)(C)OC(=O)N1CCC(CN)(c2cccc(F)c2)CC1 in the same way.
80%

From: ChEMBL document CHEMBL4837259
